Sourced from patent US20250313563A1

# subjectOfTest: GSK3α (GST-full length GSK3α) (Homo sapiens (Human))
# Sequence (P49840 whole entry): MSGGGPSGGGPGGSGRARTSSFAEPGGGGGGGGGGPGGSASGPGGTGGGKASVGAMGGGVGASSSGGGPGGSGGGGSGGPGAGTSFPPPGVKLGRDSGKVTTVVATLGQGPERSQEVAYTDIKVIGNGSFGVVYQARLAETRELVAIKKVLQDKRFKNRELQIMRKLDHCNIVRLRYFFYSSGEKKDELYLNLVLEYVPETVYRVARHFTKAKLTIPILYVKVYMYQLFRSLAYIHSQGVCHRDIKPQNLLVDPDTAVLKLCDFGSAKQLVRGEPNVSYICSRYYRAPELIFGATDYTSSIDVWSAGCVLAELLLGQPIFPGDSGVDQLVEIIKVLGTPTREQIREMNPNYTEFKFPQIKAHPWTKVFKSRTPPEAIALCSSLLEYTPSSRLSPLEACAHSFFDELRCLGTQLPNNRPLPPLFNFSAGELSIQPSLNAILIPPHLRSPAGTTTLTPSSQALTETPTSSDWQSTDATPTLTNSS
# testProtocol: GSK3α TR-FRET kinase assay
# Format: biochemical
# appliedConditions: 1 nM GSK3α, 4 μM ATP, 30 minute preincubation; geometric mean; read-out: GSK3-A TR-FRET BIOCHEMICAL (TR-FRET); GMean; IC50
pIC50: −log10 of the molar value.
Exercise: for every item that follows, state its recorded pIC50.

Query: # query: pIC50 of entry CC1(C)CC2=C(C(=O)N1)C1(CCN(S(=O)(=O)c3cnn(C(C)(C)C)c3)CC1)c1c[nH]nc1N2
Response: ≥ 7.00

Query: # query: pIC50 of entry CCC1(c2cccc(-c3cnn(C)c3)c2)C2=C(CC(C)CC2=O)Nc2n[nH]cc21 (stereo not shown) [Compound 816752]
Response: ≥ 7.00

Query: # query: pIC50 of entry CC[C@@]1(c2cccc(N3CCCCC3)c2)C2=C(CC(C)(C)CC2=O)Nc2n[nH]cc21
Response: < 5.30

Query: # query: pIC50 of entry CC[C@]1(c2cccc(-c3cnn(C(C)(C)C)c3)c2)C2=C(CC(C)(C)NC2=O)Nc2n[nH]cc21
Response: ≥ 7.00

Query: # query: pIC50 of entry CC[C@]1(c2cccc(S(=O)(=O)CC3CC3)c2)C2=C(CC(C)(C)NC2=O)Nc2n[nH]c(C(F)(F)F)c21
Response: ≥ 7.00

Query: # query: pIC50 of entry CCC1(c2ccccc2)C2=C(CCCC2=O)Nc2n[nH]cc21 (stereo not shown)
Response: 5.30 to 6.00

Query: # query: pIC50 of entry CCC1(c2cccc(-c3ccncc3C)c2)C2=C(CC3(CCOC3)NC2=O)Nc2n[nH]cc21 (stereo not shown)
Response: < 5.30

----------
# subjectOfTest: GSK3b (GST-full length GSK3b) (Homo sapiens (Human))
# Sequence (P49841 whole entry): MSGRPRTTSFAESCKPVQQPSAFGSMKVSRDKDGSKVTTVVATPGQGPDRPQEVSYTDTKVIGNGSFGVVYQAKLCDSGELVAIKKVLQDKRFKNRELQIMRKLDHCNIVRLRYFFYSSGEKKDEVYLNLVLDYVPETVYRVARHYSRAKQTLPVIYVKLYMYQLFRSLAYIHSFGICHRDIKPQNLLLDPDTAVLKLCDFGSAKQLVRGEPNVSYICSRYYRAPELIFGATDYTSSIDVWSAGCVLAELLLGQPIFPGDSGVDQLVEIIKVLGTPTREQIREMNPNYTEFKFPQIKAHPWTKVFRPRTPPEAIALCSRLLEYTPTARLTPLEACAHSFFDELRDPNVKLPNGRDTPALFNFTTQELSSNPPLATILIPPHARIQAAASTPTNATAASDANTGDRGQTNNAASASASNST
# testProtocol: GSK3b TR-FRET kinase assay
# Type: biochemical
# appliedConditions: GSK3-B (TR-FRET 1 mM ATP); GMean; IC50, 1 mM ATP; geometric mean
Exercise: for every item that follows, state its recorded IC50.

Query: Short answer please: IC50, GSK3b (GST-full length GSK3b) (Homo sapiens (Human)), entry CC[C@@]1(c2cccc(-c3cnn4c3CCCC4)c2)C2=C(CC(C)(C)NC2=O)Nc2[nH]nc(C(F)(F)F)c21
Response: 100 to 1000 nM

Query: Short answer please: IC50, GSK3b (GST-full length GSK3b) (Homo sapiens (Human)), entry Cn1ccc(S(=O)(=O)N2CC[C@]3(C2)C2=C(CC(C)(C)CC2=O)Nc2n[nH]cc23)n1 [Compound 943484]
Response: 1000 to 5000 nM

Query: Short answer please: IC50, GSK3b (GST-full length GSK3b) (Homo sapiens (Human)), entry Cc1ccc(S(=O)(=O)N2CCC3(CC2)C2=C(CC(C)(C)CC2=O)Nc2n[nH]cc23)s1
Response: 100 to 1000 nM

Query: Short answer please: IC50, GSK3b (GST-full length GSK3b) (Homo sapiens (Human)), entry CC1(C)CC(=O)C2=C(C1)Nc1n[nH]cc1C21CCN(S(=O)(=O)c2ccccc2C(F)F)CC1
Response: 1000 to 5000 nM

Query: Short answer please: IC50, GSK3b (GST-full length GSK3b) (Homo sapiens (Human)), entry COc1cccc(S(=O)(=O)N2CCC3(CC2)C2=C(CC(C)(C)CC2=O)Nc2n[nH]cc23)c1
Response: 1000 to 5000 nM

Query: Short answer please: IC50, GSK3b (GST-full length GSK3b) (Homo sapiens (Human)), entry CCC1(c2cccc(C(F)(F)F)c2)C2=C(Nc3n[nH]cc31)c1ccccc1C2=O (stereo not shown)
Response: 100 to 1000 nM

Query: Short answer please: IC50, GSK3b (GST-full length GSK3b) (Homo sapiens (Human)), entry Cn1ccc(S(=O)(=O)N2CC[C@]3(C2)C2=C(CC(C)(C)CC2=O)Nc2n[nH]cc23)n1 [Compound 945712]
Response: 100 to 1000 nM

----------
Exercise: for every item that follows, state its recorded MDCK permeability (MDR1-MDCK); Mean; Papp (B − A).
# Test system: MDR1-MDCK cell monolayers
# testProtocol: MDR1/MDCK assay (blood-brain barrier penetration potential)
# Assay type: in vitro ADME
# appliedConditions: 5 μM, pH 7.4, 120 minutes, B to A

Query: # query: MDCK permeability (MDR1-MDCK); Mean; Papp (B − A) of entry Cn1cc(-c2cccc(C3(C)C4=C(CC(C)(C)CC4=O)Nc4n[nH]c(CC(C)(C)C)c43)c2)cn1 (stereo not drawn)
Response: 54.5 10^−6 cm/s

Query: # query: MDCK permeability (MDR1-MDCK); Mean; Papp (B − A) of entry CN1CC2(C3=C(CC(C)(C)CC3=O)Nc3n[nH]c(C4CC(F)(F)C4)c32)c2ccccc21 (stereo not drawn)
Response: 70 10^−6 cm/s

Query: # query: MDCK permeability (MDR1-MDCK); Mean; Papp (B − A) of entry C[S+]([O-])c1cccc(C2(C)C3=C(CC(C)(C)CC3=O)Nc3n[nH]c(CC(C)(C)C)c32)c1 (stereo not drawn)
Response: 15.7 10^−6 cm/s

Query: # query: MDCK permeability (MDR1-MDCK); Mean; Papp (B − A) of entry CC(C)(C)Cc1[nH]nc2c1C(C)(c1cccc(N3CCOCC3)c1)C1=C(CC(C)(C)CC1=O)N2 (stereo not drawn)
Response: 48.9 10^−6 cm/s

Query: # query: MDCK permeability (MDR1-MDCK); Mean; Papp (B − A) of entry CN(C)S(=O)(=O)c1cccc(C2(C)C3=C(CC(C)(C)CC3=O)Nc3n[nH]c(CC(C)(C)C)c32)c1 (stereo not drawn)
Response: 56.2 10^−6 cm/s

Query: # query: MDCK permeability (MDR1-MDCK); Mean; Papp (B − A) of entry CC(C)(C)Cc1[nH]nc2c1C(C)(c1cc(S(C)(=O)=O)ccc1F)C1=C(CC(C)(C)CC1=O)N2 (stereo not drawn)
Response: 61.2 10^−6 cm/s

Query: # query: MDCK permeability (MDR1-MDCK); Mean; Papp (B − A) of entry CC(C)(C)Cc1[nH]nc2c1C(C)(c1cccc(S(=O)(=O)C(F)(F)F)c1)C1=C(CC(C)(C)CC1=O)N2 (stereo not drawn)
Response: 57.6 10^−6 cm/s

Query: # query: MDCK permeability (MDR1-MDCK); Mean; Papp (B − A) of entry CN1CC2(C3=C(CC(C)(C)CC3=O)Nc3n[nH]c(CC(C)(C)C)c32)c2ccccc21 (stereo not drawn)
Response: 81.2 10^−6 cm/s

Query: # query: MDCK permeability (MDR1-MDCK); Mean; Papp (B − A) of entry Cn1cncc1-c1cccc(C2(C)C3=C(CC(C)(C)CC3=O)Nc3n[nH]c(CC(C)(C)C)c32)c1 (stereo not drawn)
Response: 32.1 10^−6 cm/s

----------
Exercise: for every item that follows, state its recorded IC50.
# subjectOfTest: GSK3α (GST-full length GSK3α) (Homo sapiens (Human))
# testProtocol: GSK3α TR-FRET kinase assay
# Format: biochemical
# appliedConditions: 1 nM GSK3α, 4 μM ATP, 30 minute preincubation; geometric mean; read-out: GSK3-A TR-FRET BIOCHEMICAL (TR-FRET); GMean; IC50

Query: Short answer please: IC50, GSK3α (GST-full length GSK3α) (Homo sapiens (Human)), entry CC[C@@]1(c2cccc(C(F)(F)F)c2)C2=C(CC3(CCCC3)CC2=O)Nc2n[nH]cc21
Response: ≤ 100 nM

Query: Short answer please: IC50, GSK3α (GST-full length GSK3α) (Homo sapiens (Human)), entry CC[C@@]1(c2cccc(-c3ccnc4c(F)cccc34)c2)C2=C(CC(C)(C)NC2=O)Nc2n[nH]cc21
Response: 1000 to 5000 nM

Query: Short answer please: IC50, GSK3α (GST-full length GSK3α) (Homo sapiens (Human)), entry CCC1(c2cccc(C(F)(F)F)c2)C2=C(CCN(c3cccc(C)c3)C2=O)Nc2n[nH]cc21 (stereo not drawn)
Response: ≤ 100 nM

Query: Short answer please: IC50, GSK3α (GST-full length GSK3α) (Homo sapiens (Human)), entry CCC1(c2cccc(-c3ccncc3)c2)C2=C(CC(C)(C)CC2=O)Nc2n[nH]cc21 (stereo not drawn) [Compound 791271]
Response: ≤ 100 nM

Query: Short answer please: IC50, GSK3α (GST-full length GSK3α) (Homo sapiens (Human)), entry CCC1(c2cccc(N3CCCCC3)c2)C2=C(CC(C)(C)CC2=O)Nc2n[nH]c(C)c21 (stereo not drawn)
Response: ≤ 100 nM

Query: Short answer please: IC50, GSK3α (GST-full length GSK3α) (Homo sapiens (Human)), entry CC[C@]1(c2cccc(C(F)(F)F)c2)C2=C(CCN(c3ccc(F)cc3)C2=O)Nc2n[nH]cc21
Response: 1000 to 5000 nM

Query: Short answer please: IC50, GSK3α (GST-full length GSK3α) (Homo sapiens (Human)), entry CC1(C)CC(=O)C2=C(C1)Nc1n[nH]cc1C2(C)c1cccc(Br)c1 (stereo not drawn)
Response: ≤ 100 nM

Query: Short answer please: IC50, GSK3α (GST-full length GSK3α) (Homo sapiens (Human)), entry CCC1(c2cccc(N(C)c3cccnc3)c2)C2=C(CC(C)(C)CC2=O)Nc2n[nH]cc21 (stereo not drawn) [Compound 874298]
Response: ≤ 100 nM

Query: Short answer please: IC50, GSK3α (GST-full length GSK3α) (Homo sapiens (Human)), entry CCC1(c2cccc(-c3ccccc3)c2)C2=C(CC(C)(C)CC2=O)Nc2n[nH]cc21 (stereo not drawn) [Compound 801369]
Response: > 5000 nM

Query: Short answer please: IC50, GSK3α (GST-full length GSK3α) (Homo sapiens (Human)), entry CC[C@@]1(c2cccc(C(F)(F)F)c2)C2=C(CCN(c3ccc(C)cc3)C2=O)Nc2n[nH]cc21
Response: ≤ 100 nM

Query: Short answer please: IC50, GSK3α (GST-full length GSK3α) (Homo sapiens (Human)), entry CC[C@@]1(c2cccc(-c3ccnc4cc(F)ccc34)c2)C2=C(CC(C)(C)NC2=O)Nc2n[nH]cc21
Response: > 5000 nM

Query: Short answer please: IC50, GSK3α (GST-full length GSK3α) (Homo sapiens (Human)), entry CCC1(c2cccc(-c3ccnc(C)c3)c2)C2=C(CC(C)(C)NC2=O)Nc2n[nH]c(F)c21 (stereo not drawn) [Compound 948299]
Response: ≤ 100 nM

Query: Short answer please: IC50, GSK3α (GST-full length GSK3α) (Homo sapiens (Human)), entry CC[C@@]1(c2cccc(-c3cnn4c3CCCC4)c2)C2=C(CC(C)(C)NC2=O)Nc2n[nH]c(C)c21
Response: ≤ 100 nM

Query: Short answer please: IC50, GSK3α (GST-full length GSK3α) (Homo sapiens (Human)), entry CC1(C)CC(=O)C2=C(C1)Nc1n[nH]cc1C2(C)c1cc(Cl)cc(Cl)c1 (stereo not drawn)
Response: 100 to 1000 nM

Query: Short answer please: IC50, GSK3α (GST-full length GSK3α) (Homo sapiens (Human)), entry CCc1cnccc1-c1cccc([C@]2(CC)C3=C(CC(C)(C)NC3=O)Nc3n[nH]cc32)c1
Response: ≤ 100 nM
